This collection of values is drawn from patent US10428080B2.

Biological target: TBK1 (Homo sapiens, UniProt Q9UHD2)
Sequence (Q9UHD2 1-729): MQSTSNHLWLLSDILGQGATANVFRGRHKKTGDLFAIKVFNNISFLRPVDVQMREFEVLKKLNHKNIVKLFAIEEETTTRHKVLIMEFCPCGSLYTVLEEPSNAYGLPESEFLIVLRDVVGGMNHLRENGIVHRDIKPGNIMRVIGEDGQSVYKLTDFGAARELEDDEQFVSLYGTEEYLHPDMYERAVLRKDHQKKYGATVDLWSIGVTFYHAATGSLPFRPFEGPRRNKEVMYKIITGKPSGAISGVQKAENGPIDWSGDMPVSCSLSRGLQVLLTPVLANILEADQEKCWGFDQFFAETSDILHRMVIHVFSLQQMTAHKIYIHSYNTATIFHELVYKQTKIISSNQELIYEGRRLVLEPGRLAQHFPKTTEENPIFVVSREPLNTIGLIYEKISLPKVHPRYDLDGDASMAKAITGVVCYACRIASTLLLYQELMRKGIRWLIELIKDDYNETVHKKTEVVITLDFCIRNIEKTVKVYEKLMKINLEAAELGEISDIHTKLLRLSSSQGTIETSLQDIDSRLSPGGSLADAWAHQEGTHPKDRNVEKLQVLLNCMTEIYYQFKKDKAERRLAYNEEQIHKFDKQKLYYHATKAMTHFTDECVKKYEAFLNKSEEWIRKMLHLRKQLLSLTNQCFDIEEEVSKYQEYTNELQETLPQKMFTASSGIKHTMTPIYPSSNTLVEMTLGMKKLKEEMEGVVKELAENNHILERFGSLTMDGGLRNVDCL
Test: TBK Biochemical Assay
Conditions: read-out: TBK1 IC50
Where a name gives a salt, the structure may show the parent alone.
value kind: IC50

// query Identify measured IC50 associated with COc1cc(C(=O)N2C3COCC2CC(O)C3)cnc1-c1cc2nccc(-c3ccc(OC4CCOCC4)c(C#N)c3)c2o1 (stereo not drawn)
// result < 100 nM

// query Identify measured IC50 associated with COc1cc(C(=O)N(C)C)ncc1-c1cc2nccc(-c3ccc(N4CCC(F)C4)c(C#N)c3)c2o1 (stereo in doubt) [Compound 390]
// result < 100 nM

// query Identify measured IC50 associated with CC1CC(Nc2ccc(-c3ccnc4cc(-c5ccc(C(=O)N(C)C)cc5)oc34)cc2C#N)CC(C)O1 (stereo not drawn) [Compound 215, hydrochloride]
// result 1000 to 5000 nM

// query Identify measured IC50 associated with COc1cc(C(=O)N2C[C@H]3C[C@@H](O)C[C@H]3C2)ccc1-c1cc2nccc(-c3ccc(NC4CCOCC4)c(C#N)c3)c2o1
// result < 100 nM

// query Identify measured IC50 associated with COc1cc(C(=O)N(C)C)ncc1-c1cc2nccc(-c3ccc(NC4C5COCC54)c(C#N)c3)c2o1 (stereo not drawn)
// result < 100 nM

// query Identify measured IC50 associated with COc1cc(C(=O)N(C)CCO)cnc1-c1cc2ncc(Cl)c(-c3ccc(OC4CCOCC4)c(C#N)c3)c2o1 [Compound 342, hydrochloride]
// result 1000 to 5000 nM
